Listing of entries alongside the reported pIC50.
# System: Chang liver cells (human liver cells, normal cell line)
# test_protocol: MTT cytotoxicity test, Chang liver normal cells
# Assay type: cell-based
# measurement_setup: 48 h incubation
# Protocol: […] The cytotoxic effect on cells was determined using the colorimetric method of cell proliferation—the MTT test. […] Cells were seeded on a 96-well Nunc plate at a concentration of 5 × 10^3 cells per well in a volume of 100 μL of medium and cultured in a CO2 incubator at 37 °C until a monolayer was formed. […] Optical density was recorded at 540 nm on an in vitro logic microplate reader (Russia). […]
// pIC50 is dimensionless: -log10 of concentration (M)

Worked examples follow.
>  <molecule>
CCOP(=O)(OCC)C(c1cc(C(C)(C)C)c(O)c(C(C)(C)C)c1)c1ccc(NC(=O)Nc2ccccc2)nc1NC(=O)Nc1ccccc1 (stereo not shown)

>  <system_tested>
Chang liver cells (human liver cells, normal cell line)

>  <pIC50>
4.50

$$$$
>  <molecule>
CC(C)OP(=O)(OC(C)C)C(c1cc(C(C)(C)C)c(O)c(C(C)(C)C)c1)c1ccc(N)nc1N (stereo not shown)

>  <system_tested>
Chang liver cells (human liver cells, normal cell line)

>  <pIC50>
4.00

$$$$

INPUT: Write pIC50 of COP(=O)(OC)C(c1cc(C(C)(C)C)c(O)c(C(C)(C)C)c1)c1ccc(NC(=O)Nc2cccc(C)c2)cc1NC(=O)Nc1cccc(C)c1 (stereo not shown) [13a] ; system used: Chang liver cells (human liver cells, normal cell line)
OUTPUT: 4.04

INPUT: Please indicate recorded pIC50 of COP(=O)(OC)C(c1cc(C(C)(C)C)c(O)c(C(C)(C)C)c1)c1ccc(NC(=O)Nc2ccc([N+](=O)[O-])cc2)cc1NC(=O)Nc1ccc([N+](=O)[O-])cc1 (stereo not shown) [17a] measured with Chang liver cells (human liver cells, normal cell line).
OUTPUT: 4.07

INPUT: Please report the measured pIC50 for CCOP(=O)(OCC)C(c1cc(C(C)(C)C)c(O)c(C(C)(C)C)c1)c1ccc(NC(=O)Nc2ccc(OC)cc2)cc1NC(=O)Nc1ccc(OC)cc1 (stereo not shown) [15b] tested on Chang liver cells (human liver cells, normal cell line).
OUTPUT: 4.02

INPUT: State pIC50 on Chang liver cells (human liver cells, normal cell line). Entry: CC(C)(C)c1cc(C(c2ccc(N)nc2N)P(=O)(Oc2ccccc2)Oc2ccccc2)cc(C(C)(C)C)c1O (stereo not shown)
OUTPUT: 4.28

INPUT: Enter pIC50 (test system Chang liver cells (human liver cells, normal cell line)) for CCOP(=O)(OCC)C(c1cc(C(C)(C)C)c(O)c(C(C)(C)C)c1)c1ccc(NC(=O)Nc2cccc(C)c2)nc1NC(=O)Nc1cccc(C)c1 (stereo not shown)
OUTPUT: 4.89

---

# Test system: Chang liver cells (human liver cells, normal cell line)
# test_protocol: MTT cytotoxicity test, Chang liver normal cells
# Type: cell-based
# measurement_setup: 48 h incubation
reported_property: pIC50
Kindly note that pIC50 refers to -log10 of the concentration in mol/L and answer with the value alone.

>  <compound>
CCOP(=O)(OCC)C(c1cc(C(C)(C)C)c(O)c(C(C)(C)C)c1)c1ccc(NC(=O)Nc2ccc(OC)cc2)nc1NC(=O)Nc1ccc(OC)cc1 (stereo not shown) [10b]

>  <pIC50>
4.09

$$$$

Field: next compound
INPUT: Provide one value: measured pIC50 of CCOP(=O)(OCC)C(c1cc(C(C)(C)C)c(O)c(C(C)(C)C)c1)c1ccc(NC(=O)Nc2ccc([N+](=O)[O-])cc2)cc1NC(=O)Nc1ccc([N+](=O)[O-])cc1 (stereo not shown) [17b]
OUTPUT: 4.13
